Just for reference, the supplement of paper PMC3545927 is where these values come from.

- target.entity: furin, P09958;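 further: purified furin at 1:10 enzyme:substrate in 50 mM HEPES pH 7.5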
- Sequence (P09958 whole entry): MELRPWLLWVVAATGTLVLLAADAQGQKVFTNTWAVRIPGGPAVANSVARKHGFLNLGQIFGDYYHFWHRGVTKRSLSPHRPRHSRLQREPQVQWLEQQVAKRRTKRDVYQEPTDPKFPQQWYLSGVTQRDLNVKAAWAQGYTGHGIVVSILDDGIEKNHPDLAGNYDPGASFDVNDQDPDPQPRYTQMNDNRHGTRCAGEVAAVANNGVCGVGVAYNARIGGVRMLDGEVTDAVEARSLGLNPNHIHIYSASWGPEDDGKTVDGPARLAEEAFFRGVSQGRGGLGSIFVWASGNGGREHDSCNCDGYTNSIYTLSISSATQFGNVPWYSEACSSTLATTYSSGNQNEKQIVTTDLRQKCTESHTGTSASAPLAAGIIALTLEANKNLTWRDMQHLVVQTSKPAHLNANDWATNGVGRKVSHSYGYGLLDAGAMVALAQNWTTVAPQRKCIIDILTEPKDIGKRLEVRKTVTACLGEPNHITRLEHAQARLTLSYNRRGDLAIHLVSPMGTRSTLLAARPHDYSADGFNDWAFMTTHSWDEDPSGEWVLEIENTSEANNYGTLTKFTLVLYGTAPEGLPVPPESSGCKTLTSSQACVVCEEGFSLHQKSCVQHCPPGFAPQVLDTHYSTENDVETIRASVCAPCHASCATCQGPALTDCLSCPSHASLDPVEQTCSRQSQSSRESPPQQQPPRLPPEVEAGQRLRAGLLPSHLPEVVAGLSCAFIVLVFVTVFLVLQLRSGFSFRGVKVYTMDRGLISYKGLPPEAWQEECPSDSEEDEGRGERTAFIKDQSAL
- test.summary: furin cleavage Z-score vs untreated control; higher = more cleavage, active = 3.5 or more, inactive = 1 or less, 8 variable residues between constant flanks
- experimental.parameters: 7.5 min
The other results are listed elsewhere or left out. How many sequences the whole screen found active is unknown.
Just give me one of these, please: YES for active, NO for inactive

The examples below pair each entry with its known result.
monomer.sequence: CAVLAGIAYFAGNASASA [HC338]
classification: NO

monomer.sequence: CASKVRKSRSAGNASASA [FS-1166]
classification: YES

monomer.sequence: CASSLTVTQLAGNASASA [HC1135]
classification: NO

monomer.sequence: CATDRSGAPTAGNASASA [HC420]
classification: NO

monomer.sequence: CAVLSRASRSAGNASASA [FS-104]
classification: YES

Request: Just curious, what result did CANKSRSARSAGNASASA [FS-467] get here?
Result: YES
